- target-or-system: human SERT (Homo sapiens (Human))
- Sequence (P31645 whole entry): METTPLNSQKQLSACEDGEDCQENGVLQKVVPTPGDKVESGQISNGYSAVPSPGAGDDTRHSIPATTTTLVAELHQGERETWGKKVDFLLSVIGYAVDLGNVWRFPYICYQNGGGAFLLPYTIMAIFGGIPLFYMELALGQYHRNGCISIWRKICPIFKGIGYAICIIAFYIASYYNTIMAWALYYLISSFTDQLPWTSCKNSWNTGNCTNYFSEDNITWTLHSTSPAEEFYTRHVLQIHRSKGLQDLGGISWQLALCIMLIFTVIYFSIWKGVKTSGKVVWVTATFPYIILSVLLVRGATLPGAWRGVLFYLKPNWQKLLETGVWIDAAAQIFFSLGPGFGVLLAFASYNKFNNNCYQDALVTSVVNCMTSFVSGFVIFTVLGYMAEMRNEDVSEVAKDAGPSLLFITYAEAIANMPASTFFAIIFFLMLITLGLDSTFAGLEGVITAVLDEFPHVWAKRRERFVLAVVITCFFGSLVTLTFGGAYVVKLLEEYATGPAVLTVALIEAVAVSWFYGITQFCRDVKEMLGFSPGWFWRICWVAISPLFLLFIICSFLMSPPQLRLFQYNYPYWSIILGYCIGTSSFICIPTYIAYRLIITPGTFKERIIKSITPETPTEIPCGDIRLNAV
- test-details: Novascreen Serotonin, Transporter SERT (h) binding, platelets, [3H]Citalopram, N-Methyl
experimental-endpoint: Ki (nM)

A = CCNCC[C@@H](Oc1cccnc1OC)c1ccccc1 [Compound 4]
B = CCNCC[C@@H](Oc1cccnc1OCC)c1ccccc1 [Compound 5]
Prompt: In terms of reported Ki, does A or B have the smaller number? Indicate your choice by writing its label.
Completion: A

###

- target-or-system: human NET (Homo sapiens (Human))
- Sequence (P23975 whole entry): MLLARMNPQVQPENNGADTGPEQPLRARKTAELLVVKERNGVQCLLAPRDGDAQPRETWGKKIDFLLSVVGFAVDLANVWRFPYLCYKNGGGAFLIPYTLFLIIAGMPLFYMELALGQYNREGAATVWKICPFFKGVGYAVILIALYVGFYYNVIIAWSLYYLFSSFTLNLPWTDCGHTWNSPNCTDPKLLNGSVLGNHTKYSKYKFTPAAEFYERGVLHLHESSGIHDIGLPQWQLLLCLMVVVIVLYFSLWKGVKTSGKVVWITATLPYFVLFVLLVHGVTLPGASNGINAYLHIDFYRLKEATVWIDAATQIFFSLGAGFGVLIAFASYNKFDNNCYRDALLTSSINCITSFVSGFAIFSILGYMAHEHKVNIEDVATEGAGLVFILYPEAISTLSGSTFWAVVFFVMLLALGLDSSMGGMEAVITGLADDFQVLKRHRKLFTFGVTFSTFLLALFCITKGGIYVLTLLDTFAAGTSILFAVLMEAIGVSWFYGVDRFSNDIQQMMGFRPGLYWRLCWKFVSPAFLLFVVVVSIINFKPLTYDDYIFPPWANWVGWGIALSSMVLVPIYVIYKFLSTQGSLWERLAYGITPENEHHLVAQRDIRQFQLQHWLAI
- test-details: Novascreen Norepinephrine, Transporter NET (h) binding, recombinant CHO cells, [3H]-Nisoxetine
experimental-endpoint: Ki (nM)

CCNCC[C@@H](Oc1cccnc1OCC)c1ccccc1; 37.3
CCOc1ncccc1O[C@H](CCNC)c1ccccc1; 4.2
CCOc1ncccc1O[C@H](CCN)c1ccccc1; 69

I = CNCC[C@@H](Oc1cccnc1OCCO)c1ccccc1
II = CCNCC[C@@H](Oc1cccnc1OC)c1ccccc1
Prompt: When their Ki values are compared, which is larger, I or II ? Indicate your choice by writing its label.
Completion: II
